Source listed as PubChem BioAssay (NCATS).

- ASSAY_INFO: qHTS for Inhibitors of the Functional Ribonucleoprotein Complex (vRNP) of Lymphocytic Choriomeningitis Arenaviruses (LCMV): Viability assay - alamar blue signal for LCMV Primary Screen (AID 1347085); note: nearly all actives have a fitted effect of over 80% in size
- CONDITION_DESCRIPTION: alamar blue viability counter-screen, LCMV vRNP screen cells; series mostly up to 57.5 µM
Inconclusive results are not listed. The source made the active and inactive calls. Calls come from the whole dose curve; tested in HEK293 reporter line.
Mark one answer only. Choices: active, inactive

COMPOUND	CLASS
C[C@H](NC(=O)[C@@H](O)c1cc(F)cc(F)c1)C(=O)N[C@@H]1C(=O)N(C)c2ccccc2-c2ccccc21	inactive
COc1ccc2c(c1OC)C(=O)OC2[C@H]1c2c(cc3c(c2OC)OCO3)CCN1C (stereo not given in full)	active
C=CC(=O)Nc1ccc2ncnc(Nc3ccc(OCc4cccc(F)c4)c(Cl)c3)c2c1	active

*Q* Please indicate how the test categorized O=C(c1ccccc1)N1CCCCC1 .
*A* inactive

*Q* Please indicate how the test categorized CCS(=O)(=O)N1CC(CC#N)(n2cc(-c3ncnc4[nH]ccc34)cn2)C1 .
*A* inactive

====

- Test system: HaCat
- ASSAY_INFO: Cytotoxic Profiling of Annotated Libraries Using Quantitative High-Throughput Screening (AID 1296008); note: % is set by controls: 0 for no effect and ±100 for the full control effect; nearly all actives have a fitted effect of over 60% in size
- CONDITION_DESCRIPTION: Five cell lines viability, CellTiter-Glo ATP luminescence, 48-72 h; stronger effect = lower value
- Method: Cell-based phenotypic screening is a commonly used approach to discover biological pathways, novel drug targets, chemical probes and high-quality hit-to-lead molecules. […] A pintool (Kalypsys) was used to transfer 23 nL of compound solution to the 1536-well assay plates. […] Plates were left at room temperature for 10 min before imaging the ATP-coupled luminescence using a ViewLux microplate imager (PerkinElmer, Waltham, MA).
Records with an inconclusive call do not appear.
MEASURED_PARAMETER: max response (%)
One number for each entry, in %.

Observe how each entry below is paired with its result.
COMPOUND	RESULT_UNIT	max response
C/C=C(/C)C(=O)O[C@H]1[C@@H]2[C@H](C)C(=O)O[C@@H]2C[C@@H](C)[C@@H]2C=CC(=O)[C@]21C	%	-11.7
CN1CN(c2ccccc2)C2(CCN(CCCC(=O)c3ccc(F)cc3)CC2)C1=O	%	2.53
C[C@@H]1CN(Cc2ccc(F)cc2)CCN1C(=O)COc1ccc(Cl)cc1NC(N)=O	%	-27

I need max response for every entry listed below, if you could help.
1. C/C=C(/C)C1C=CC2CC(C)CC(C)C2C1/C(O)=C1\C(=O)NC(CC(C)(O)C(=O)O)C1=O (centres undefined)
2. C=C(C)[C@@]12O[C@@H]1[C@@]1(C)C(=C[C@H]2O)CC[C@@H](O)[C@@H]1C
3. N#Cc1ccccc1-c1cc(-c2ccccn2)cn(-c2ccccc2)c1=O
4. CCc1nn(C)c(C(=O)NCc2ccc(Oc3ccc(C)cc3)cc2)c1Cl
5. CC1CCCC(O)CCC/C=C/c2cc(O)cc(O)c2C(=O)O1 (centres undefined)
6. CN1C(=O)N(c2ccc(C#N)c(C(F)(F)F)c2)C(=O)[C@@]1(CO)c1ccccc1

*A*
1: -6.03; 2: -1.07; 3: 1.04; 4: 1.94; 5: 0.224; 6: 0.274

====

- ASSAY_INFO: J3T Cancer Cell Toxicity qHTS against the NCATS CANVASS Library (AID 1347371)
- CONDITION_DESCRIPTION: J3T dog glioma viability, ATP luminescence, 72 h; series mostly up to 46.1 µM
Records with an inconclusive call do not appear. Active and inactive are the calls of the source. Calls follow the shape of the dose curve; as a rule, active = well fitted cell-killing curve with a large enough effect; inconclusive = small, poorly fitted or top-dose-only effect; inactive = flat fitted curve, though single readings scatter.
Mark one answer only. Choices: active, inactive

Example entries and their recorded answers appear below.
MOLECULE	CLASS
O=C(c1ccccc1O)c1[nH]c(Cl)c(Cl)c1-n1c(C(=O)c2ccccc2O)cc(Cl)c1Cl	active
CNCCc1ccc(O)cc1	inactive
CNCCc1ccccc1	inactive
NCCc1ccccc1	inactive
CN(C)Cc1c[nH]c2ccccc12	inactive

*Q* Please indicate how the test categorized CC[C@@H]1CN2CC[C@@]3(O)C(=Nc4cccc(OC)c43)[C@@H]2C[C@@H]1/C(=C\OC)C(=O)OC .
*A* inactive

*Q* Please indicate how the test categorized CO[C@@H](/C=C/CC/C=C/C(=O)O)[C@@H](O)[C@H](C)/C=C(\C)[C@@H](O)[C@H](C)C(=O)CCCC1CC(=O)NC(=O)C1 .
*A* inactive

*Q* Please indicate how the test categorized CC1=CC2CC[C@@H]3[C@@H](C)C[C@H](C)[C@@H](C1)N23 (stereo partly specified) .
*A* inactive

*Q* Please indicate how the test categorized CCCC[C@@H]1CC[C@H]2CCCC(CCC)N12 (stereo partly specified) .
*A* inactive

*Q* Please indicate how the test categorized CCN1C[C@]2(C)CC[C@@H](O)[C@]34C1[C@H](C[C@H]23)C12CCC(CC14)[C@](O)(CO)[C@H]2O (stereo partly specified) .
*A* inactive

*Q* Please indicate how the test categorized CCC(=O)CCCCC[C@@H]1NC(=O)[C@H]2CCCCN2C(=O)[C@H]([C@@H](C)CC)NC(=O)[C@H](Cc2cn(OC)c3ccccc23)NC1=O .
*A* active
